- PROCEDURE_TEXT: miR-27b level by RT-PCR, dose response, miR-122 / miR-27b project, Huh7 cells, cherry-pick, activator set (AID 720492)
- CONDITION_SUMMARY: Huh7 miR-27b levels, qRT-PCR, 48 h; series mostly up to 35 µM
The source made the active and inactive calls.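 The calls were made as follows: active = unnormalized dose curve rising to cross level 40 at or below the top tested dose; inconclusive = flat fit at moderately raised activity, or poor fit; inactive = the rest.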
MEASUREMENT_NAME: outcome

INSERT INTO assay_data (molecule, measurement_name, observed_result) VALUES
  ('COCC(=O)N(C)C[C@H]1Oc2cc(-c3ccc(C#N)cc3)ccc2S(=O)(=O)N([C@@H](C)CO)C[C@H]1C', 'outcome', 'inactive'),
  ('C[C@H](CO)N1C[C@H](C)[C@@H](CN(C)C(=O)C2CCOCC2)Oc2cc(C#Cc3ccncc3)ccc2S1(=O)=O', 'outcome', 'inactive'),
  ('CNC[C@@H]1Oc2cc(C#CC3CCCCC3)ccc2S(=O)(=O)N([C@@H](C)CO)C[C@@H]1C', 'outcome', 'inactive'),
  ('CO[C@@H]1CN(C)C(=O)c2cc(NC(=O)c3cccc(Oc4ccccc4)c3)ccc2OC[C@H](C)NC[C@@H]1C', 'outcome', 'inactive'),
  ('C[C@H]1CN([C@@H](C)CO)C(=O)c2cc(-c3ccc(C#N)cc3)cnc2O[C@H]1CN(C)Cc1cncnc1', 'outcome', 'inactive');

(Q) Request the reported outcome associated with "COc1ccc(S(=O)(=O)N(C)C[C@@H]2Oc3ncc(/C=C/c4ccccc4)cc3C(=O)N([C@@H](C)CO)C[C@@H]2C)cc1"
(A) inactive

(Q) Same read-out for "COCC(=O)N(C)C[C@H]1Oc2cc(-c3ccc(C#N)cc3)ccc2S(=O)(=O)N([C@H](C)CO)C[C@H]1C" ?
(A) inactive
